Test system: HOP-92 NSCLC
Test: NCI-60 one-dose screen, 48 h
Conditions: 10 µM unless noted
Compounds without any hit were thinned out: in the full panel of roughly 83,000, 20% have a hit. Activity calls are given as the source filed them. The calls were made as follows: active = growth percent below 10; inactive = the rest.
Pick one and only one: 1 = active, 0 = inactive

Some solved cases for reference:
Task: In this assay, the call recorded for `COc1ccc(-c2cn(-c3cccc(C(=O)/C=C/c4cc(OC)c(OC)c(OC)c4)c3)c(=O)[nH]2)cc1` was what?
Output: 1

Task: In this assay, the call recorded for `O=C(O)c1ccccc1C(=O)Nc1ccc(Cl)cc1` was what?
Output: 0

Task: In this assay, the call recorded for `Cc1ccc(S(=O)(=O)N(CC[C@@H]2C[C@H]2c2cc3ccccc3o2)C(=O)NC2CCCCC2)cc1` was what?
Output: 0

***
Task: In this assay, the call recorded for O=C(/C=C/C12c3ccccc3C(c3ccccc31)C1C(=O)N(c3ccccc3)C(=O)C12)c1ccc(Cl)cc1 (stereo unspecified) was what?
Output: 0

Task: In this assay, the call recorded for `Cc1nc(Nc2cccc(NC(=O)Nc3ccc(Cl)cc3)c2)c2ccccc2n1` was what?
Output: 0

Task: In this assay, the call recorded for `CCOc1ccc2nc(-c3cccc(OCC(=O)NC(C)C)c3)nc(Nc3ccc(-c4cn[nH]c4)cc3)c2c1` was what?
Output: 1

Task: In this assay, the call recorded for `CN(C)CCn1cc(-c2ccc3c(Nc4ccc(CC(=O)Nc5cccc(F)c5)cc4)ncnc3c2)cn1` was what?
Output: 1

###

Reported growth is given for each of the following compounds.
Test system: KM12 colon
Assay: NCI-60 one-dose screen, 48 h (100 = growth as untreated, 0 = no growth, -100 = all killed)
Settings: 10 µM unless noted
The panel holds about 83,000 compounds, 20% with a hit somewhere; the sample as a whole holds those more often.
Entry rule: numbers only, all in %.

Worked examples, 10 compounds total:
Task: Note growth for the compound shown: `COc1ccc(OC)c(Nc2nc3nonc3nc2Nc2cccc(Br)c2)c1`
Output: 7.96

Task: Note growth for the compound shown: `COc1ccc(-c2cncnc2N)cc1OC`
Output: 109

Task: Note growth for the compound shown: `O=C(Oc1ccc[nH]c1=O)c1cc([N+](=O)[O-])cc([N+](=O)[O-])c1`
Output: 116

Task: Note growth for the compound shown: O=c1[nH]c(=O)n(C2CC(O)C(CO)O2)cc1CO (stereo unspecified)
Output: 103

Task: Note growth for the compound shown: `O=C(CCCCCCCn1cc(-c2cccnc2)nn1)Nc1ccccc1-c1ccccc1`
Output: 29.4

Task: Note growth for the compound shown: `Cc1cn(C2CCCCC2)c(=O)[nH]c1=O`
Output: 117

Task: Note growth for the compound shown: `COc1cc2c(cc1OC)-c1ccc3cc4c(cc3c1N(CCN1CCCC1)C2)OCO4`
Output: 16.7

Task: Note growth for the compound shown: O=C1Nc2ccccc2SC1C1SC(=S)N(Cc2ccccc2)C1=O (stereo unspecified)
Output: -48.5

Task: Note growth for the compound shown: `CC(=O)c1ccc2c(c1)CCN2`
Output: 110

Task: Note growth for the compound shown: `CC(C)n1nc(C#Cc2cccc(NC(=O)c3cccc(C(F)(F)F)c3)c2)c2c(N)ncnc21`
Output: 3.28

***
Task: Note growth for the compound shown: CCOc1cc(C2C(Cl)C(=O)N2n2cnnc2)ccc1O (stereo unspecified)
Output: 99.1

###

System: SF-539 CNS
Assay: NCI-60 one-dose screen, 48 h (100 = growth as untreated, 0 = no growth, -100 = all killed)
Conditions: 10 µM unless noted
Experimental: Cells are grown in 96 well plates and exposed to the test compound for 48 hours. Compounds are tested at a single concentration, which is 10^-5 M for most compounds. The reported endpoint is percent growth (GI% or GIPRCNT), where numbers from 0 - 100% represent growth inhibition, and numbers from -100% - 0 represent cell death. For example, a value of 40 represents 60% growth inhibition. A value of 0 means no net growth occurred over the course of the experiment. […]
About 83,000 compounds went through this panel and 20% of them were active in at least one assay; those are over-represented in the sample as a whole.
Reported growth is given for each of the following compounds.
Entry rule: numbers only, all in %.

Worked examples, 6 compounds total:
Task: Consider the compound `COc1ccc(Nc2ncc(Br)c(NCCCNC(=O)C3CCC3)n2)cc1` tested on SF-539 CNS; state its growth.
Output: 2.94

Task: Consider the compound `COc1cc2c(cc1OC)-c1ccc3cc4c(cc3c1N(CCCN1CCCCC1)C2)OCO4` tested on SF-539 CNS; state its growth.
Output: 61.7

Task: Consider the compound CCC(=O)OC1=C(C)SC2=NC(c3ccc(Cl)c(Cl)c3)=CC(c3cc(OC)c(OC)c(OC)c3)N21 (stereo not given) tested on SF-539 CNS; state its growth.
Output: 90.9

Task: Consider the compound `CN(C)CN1CCN(c2ccc3nc(-c4ccc5nc(-c6ccc(C(F)(F)F)cc6)[nH]c5c4)[nH]c3c2)CC1` tested on SF-539 CNS; state its growth.
Output: 65.8

Task: Consider the compound `NC(N)=N/N=C(/c1ccccc1)c1ccccc1F` tested on SF-539 CNS; state its growth.
Output: 2.84

Task: Consider the compound `CC(C)(C)c1ccc(C(=O)Nc2sc3c(c2C(N)=O)CCC(=O)C3)cc1` tested on SF-539 CNS; state its growth.
Output: -77.8

***
Task: Consider the compound `COc1ccc(Oc2nc(Nc3ccc(N4CCOCC4)nc3)ncc2NC(=O)c2cc(OC)cc(OC)c2)cc1` tested on SF-539 CNS; state its growth.
Output: 78.2

Task: Consider the compound `NC(N)=N/N=C/CO` tested on SF-539 CNS; state its growth.
Output: 97.5

Task: Consider the compound CCOC(=O)C1=C(C)NC(SCc2nnc(-c3ccc(Cl)cc3)o2)=NC1c1ccc(Cl)cc1Cl (stereo not given) tested on SF-539 CNS; state its growth.
Output: 86.4

Task: Consider the compound `CNCCNc1nc2ccccc2c2c(=O)c3cc(F)ccc3oc12` tested on SF-539 CNS; state its growth.
Output: 58.9

Task: Consider the compound `Cc1cn(C2CCCCC2)c(=O)[nH]c1=O` tested on SF-539 CNS; state its growth.
Output: 109

Task: Consider the compound `CCCN1CCN(c2ccc3nc(-c4ccc5nc(-c6cc(OC)c(OC)c(OC)c6)[nH]c5c4)[nH]c3c2)CC1` tested on SF-539 CNS; state its growth.
Output: 59.6

Task: Consider the compound `Nc1ccc2c(S(=O)(=O)O)ccc(S(=O)(=O)O)c2c1` tested on SF-539 CNS; state its growth.
Output: 88.5

###

Reported growth is given for each of the following compounds.
System: HOP-62 NSCLC
Experiment: NCI-60 one-dose screen, 48 h (100 = growth as untreated, 0 = no growth, -100 = all killed)
Details: 10 µM unless noted
The panel holds about 83,000 compounds, 20% with a hit somewhere; the sample as a whole holds those more often.
Entry rule: numbers only, all in %.

Task: Note growth for the compound shown: CC12CC(C#N)CCC1O2 (stereo not given)
Output: 108

Task: Note growth for the compound shown: `CC(C)(C)Nc1c(-c2c3ccccc3cc3ccccc23)nc2ccccn12`
Output: 65.1

Task: Note growth for the compound shown: `NS(=O)(=O)c1cnccc1-n1ccc(=O)c(S(N)(=O)=O)c1`
Output: 85.6

***
Task: Note growth for the compound shown: `NC(N)=N/N=C/CO`
Output: 105

Task: Note growth for the compound shown: `Cc1ccc(S(=O)(=O)NN/C(N)=N\S(=O)(=O)c2cc(C)c(Cl)cc2SCc2ccccc2)cc1`
Output: 82.4

Task: Note growth for the compound shown: CCN(CC)CCCC(C)NCc1ccccc1 (stereo not given)
Output: 108

###

System: MDA-MB-435 melanoma
Assay: NCI-60 one-dose screen, 48 h (100 = growth as untreated, 0 = no growth, -100 = all killed)
Conditions: 10 µM unless noted
About 83,000 compounds went through this panel and 20% of them were active in at least one assay; those are over-represented in the sample as a whole.
Response field label: string, one of satisfied (growth strictly below 40%) or not satisfied.

Some solved cases for reference:
Task: Does `CCN(CC)N=Nc1nn(C(=O)Nc2ccc(Cc3ccccc3)cc2)c2ccc(Cl)cc12` have growth strictly under 40%?
Output: not satisfied

Task: Does `Cc1ccc(/C=C(\C#N)n2nnc3cc(Cl)c(Cl)cc32)cc1` have growth strictly under 40%?
Output: satisfied

Task: Does `O=C(O)c1ccccc1C(=O)Nc1ccc(Cl)cc1` have growth strictly under 40%?
Output: not satisfied

***
Task: Does `N#Cc1c(N)nc2c(nnn2-c2cccc(Br)c2)c1N` have growth strictly under 40%?
Output: not satisfied

###

Tested on: HCT-15 colon
Test: NCI-60 one-dose screen, 48 h
Conditions: 10 µM unless noted
This is part of a sample that, as a whole, favours compounds with a hit. Of some 83,000 tested, about 20% had one in any assay. The source made the active and inactive calls. How the source made its calls: active means growth percent below 10; inactive means the rest.
Pick one and only one: active, inactive

Task: In this assay, the call recorded for `CC(C)(C)Nc1c(-c2c3ccccc3cc3ccccc23)nc2ccccn12` was what?
Output: inactive

Task: In this assay, the call recorded for `O=C(/C=C/c1ccccc1)c1ccc2ccccc2c1` was what?
Output: inactive

Task: In this assay, the call recorded for `CC1=CC(=O)C(C(C)C)=CC1=Nc1cc(Br)c(O)c(Br)c1` was what?
Output: inactive

Task: In this assay, the call recorded for `NC(N)=N/N=C/CO` was what?
Output: inactive

Task: In this assay, the call recorded for `CCCc1nc2ccccn2c1Nc1ccc(C(=O)NO)cc1` was what?
Output: inactive
